Listing of entries alongside the reported normalized growth.
ASSAY_REMARKS: chemical genetic growth profiling, strain panel (AID 1159580);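 note: tested at 20 µM; growth read once vehicle control cultures reached saturation at 30 °C; 1 = growth at the plate median or of vehicle wells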
EXPERIMENTAL_CONTEXT: S. cerevisiae deletion strains, growth OD, locus YER155C, strain BEM2, stronger effect = lower value
In all, about 5,500 compounds went through this assay and about 2,000 (36%) were called active. Inconclusive results (about 18%) are left out. The list shows a part of the results.
MEASURE: normalized growth

1) COC(=O)[C@@H]1OC(=O)C2OC23[C@@]1(C)CCC1[C@@]2(C)CCC(=O)C(C)(C)C2C[C@@H](OC(C)=O)[C@]13C (stereo not given in full) ... 1
2) C[C@]12CCC3c4ccc(OC(=O)CCC(=O)O)cc4CCC3C1CCC2=O (stereo not given in full) ... 1.01
3) C[C@]12CCC3c4ccc(OC(=O)c5ccccc5)cc4CCC3C1CCC2=O (stereo not given in full) ... 0.996
4) O=C1CCCCC/C=C/CCCCCCCCO1 ... 1
5) NCCCNCCSP(=O)(O)O ... 0.942
6) c1ccc2c(CC3=NCCN3)cccc2c1 ... 1
7) Fc1ccc([C@@H]2CCNC[C@H]2COc2ccc3c(c2)OCO3)cc1 ... 1
8) NCCCCNCCCN ... 1.01
9) NCC[C@@H](O)C(=O)N[C@@H]1C[C@H](N)[C@@H](O[C@H]2O[C@H](CN)[C@@H](O)[C@H](O)[C@H]2O)[C@H](O)[C@H]1O[C@H]1O[C@H](CO)[C@@H](O)[C@H](N)C1O (stereo not given in full) ... 1.01
10) O=c1cccc2n1CC1CC2CN2CCCC[C@@H]12 (stereo not given in full) ... 1

---

Listing of entries alongside the reported normalized growth.
ASSAY_REMARKS: chemical genetic growth profiling, strain panel (AID 1159580)
EXPERIMENTAL_CONTEXT: S. cerevisiae deletion strains, growth OD, locus YMR058W, strain fet3, stronger effect = lower value
The whole screen tested about 5,500 compounds, of which about 2,000 (36%) were called active. Inconclusive results (about 18%) are left out. The list shows a part of the results.
MEASURE: normalized growth

1) CN(C)CCC(c1ccccc1)c1ccccn1 (stereo unspecified) ... 1.02
2) Clc1ccccc1CN1CCc2sccc2C1 ... 1.01
3) N[C@@H](C(=O)O)[C@@H](O)[C@H](O)[C@H](O)CO ... 1.03
4) COC(=O)[C@H](c1ccccc1Cl)N1CCc2sccc2C1 ... 0.989
5) COc1cc(NS(C)(=O)=O)ccc1Cc1c2ccccc2nc2ccccc12 ... 0.949
6) O=NN(CCCl)C(=O)NCCCl ... 0.878
7) NC(C(=O)O)C(O)C(=O)O (stereo unspecified) ... 0.99
8) C[C@@H]1CC2C3CCC4=CC(=O)C=C[C@]4(C)[C@@]3(F)[C@@H](O)C[C@]2(C)[C@@]1(O)C(=O)CO (stereo partly specified) ... 0.981
9) O=C1CCCN1CC#CCN1CCCC1 ... 1.03
10) CC(=O)O[C@]1(C)CC[C@@]23CC1C(C)(C)[C@@H]2CC[C@H]3C ... 0.968
11) COC(=O)[C@@H]1OC(=O)C2OC23[C@@]1(C)CCC1[C@@]2(C)CCC(=O)C(C)(C)C2C[C@@H](OC(C)=O)[C@]13C (stereo partly specified) ... 1.01

---

ASSAY_REMARKS: chemical genetic growth profiling, strain panel (AID 1159580)
EXPERIMENTAL_CONTEXT: S. cerevisiae deletion strains, growth OD, locus YNL153C, strain GIM3, stronger effect = lower value
Hit rate of the full screen: of about 5,500 compounds, about 2,000 (36%) were called active. Not shown: some 18% with an inconclusive outcome. This is one part of the list.
Labelling field: enter Satisfied if recorded normalized growth is less than 1. Enter Not satisfied if it equals or exceeds that cut-off.

1) COc1ccc(-c2cc(=O)c3c(OC)cc(OC)cc3o2)cc1 ... Satisfied
2) NC(=O)c1ncn(C2OC(CO)C(O)C2O)n1 (stereo unspecified) ... Not satisfied
3) Clc1ccc(COC(Cn2ccnc2)c2ccc(Cl)cc2Cl)c(Cl)c1 (stereo unspecified) ... Satisfied
4) COc1ccc(C(=O)c2sc(Nc3ccccc3)nc2-c2ccccc2)cc1 ... Not satisfied
5) CN=C(N)NCCCC(N)C(=O)O (stereo unspecified) ... Not satisfied
6) COc1ccc(NC(=O)c2ccc(-c3ccc(-c4noc(C)n4)cc3C)cc2)cc1N1CCN(C)CC1 ... Satisfied
7) CC(=O)OC1CC(OC(C)=O)C2(C)C(CC(OC(C)=O)C3(C)C2CCC2(C)C(c4ccoc4)OC(=O)C4OC423)C1(C)C (stereo unspecified) ... Not satisfied
8) COc1cc2c(CCNC(C)=O)c[nH]c2cc1Cl ... Satisfied
9) COC1C=CC23c4cc5c(cc4CN(CC2O)[C@@H]3C1)OCO5 (stereo partly specified) ... Not satisfied

---

ASSAY_REMARKS: chemical genetic growth profiling, strain panel (AID 1159580)
EXPERIMENTAL_CONTEXT: S. cerevisiae deletion strains, growth OD, locus YNL248C, strain rpa49, stronger effect = lower value
Among all 5,500 compounds or so, about 2,000 (36%) were called active. Another 18% or so got no clear call; they are omitted. The list shows a part of the results.
MEASURE: normalized growth

1) COC[C@]12CN(C=O)C3[C@@H]4[C@H](OC)C1[C@]3(C1CC3(O)C(OC)C(O)C4(OC(C)=O)C1C3OC(=O)c1ccccc1)[C@@H](OC)C[C@H]2O (stereo partly drawn) ... 1.02
2) CC[C@@H]1OC(=O)C[C@@H](O)[C@H](C)[C@@H](O[C@@H]2O[C@H](C)[C@@H](O)[C@H](N(C)C)[C@H]2O)[C@@H](CCN2C[C@H](C)C[C@H](C)C2)C[C@@H](C)C(=O)/C=C/C(C)=C\[C@@H]1CO[C@@H]1O[C@H](C)[C@@H](O)[C@@H](OC)[C@H]1OC ... 1
3) COP(=S)(OC)Oc1ccc(Sc2ccc(OP(=S)(OC)OC)cc2)cc1 ... 1

---

ASSAY_REMARKS: chemical genetic growth profiling, strain panel (AID 1159580);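 note: tested at 20 µM; growth read once vehicle control cultures reached saturation at 30 °C; 1 = growth at the plate median or of vehicle wells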
EXPERIMENTAL_CONTEXT: S. cerevisiae deletion strains, growth OD, locus YBR023C, strain chs3
The whole screen tested about 5,500 compounds, of which about 2,000 (36%) were called active. About 18% were inconclusive and are not listed. Cut-off read from the data, not from the text of the source: active = normalized growth mostly below about 0.91 (no sharp cut-off); inconclusive = no clear call, values can overlap the other calls; inactive = mostly above about 0.92. The list shows a part of the results.
Possible outcomes: active, inactive

1. CN[C@@H]1C(OC2[C@H](O[C@H]3[C@H](O)[C@@H](O)[C@H](N=C(N)N)[C@@H](O)[C@@H]3N=C(N)N)OC(C)[C@]2(O)CO)OC(CO)C(O)C1O (stereo not given in full) ... inactive
2. Clc1ccc(C(Cn2ccnc2)OCc2ccsc2Cl)c(Cl)c1 (stereo not given) ... active
3. FC(F)(F)c1cccc(N2CCNCC2)c1 ... inactive
4. COc1cc(C)c2c(=O)cc(-c3ccccc3)oc2c1 ... active
5. O=c1oc2ccccc2cc1O ... inactive

---

ASSAY_REMARKS: chemical genetic growth profiling, strain panel (AID 1159580);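 note: tested at 20 µM; growth read once vehicle control cultures reached saturation at 30 °C; 1 = growth at the plate median or of vehicle wells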
EXPERIMENTAL_CONTEXT: S. cerevisiae deletion strains, growth OD, locus YEL037C, strain rad23, stronger effect = lower value
About 2,000 (36%) of roughly 5,500 compounds were called active. About 18% were inconclusive and are not listed. This is one part of the list.
MEASURE: normalized growth

1. NC(N)=NCCCCN=C(N)N ... 0.964
2. NC(N)=NCCN1CCCCCCC1 ... 1.03
3. NC(=O)NC1NC(=O)NC1=O (centres undefined) ... 1.01
4. C[C@]12CCC3c4ccc(O)cc4CCC3C1CCC2=O (some centres undefined) ... 1.01
5. CC[C@@H]1OC(=O)C[C@@H](O)[C@H](C)[C@@H](O[C@@H]2O[C@H](C)[C@@H](O)[C@H](N(C)C)[C@H]2O)[C@@H](CCN2C[C@H](C)C[C@H](C)C2)C[C@@H](C)C(=O)/C=C/C(C)=C\[C@@H]1CO[C@@H]1O[C@H](C)[C@@H](O)[C@@H](OC)[C@H]1OC ... 1.01
6. COc1ccc2nc(S(=O)Cc3ncc(C)c(OC)c3C)[nH]c2c1 (centres undefined) ... 1.02
7. COc1cc(NS(C)(=O)=O)ccc1Cc1c2ccccc2nc2ccccc12 ... 0.979
8. CC(=O)Oc1ccc2c(c1)CCC1C2CC[C@]2(C)C(=O)CCC12 (some centres undefined) ... 0.989
9. C[C@H]1C[C@@H](O)[C@]2(O)[C@@]13CC(=O)OC[C@@]2(C)[C@](C)(O)C(=O)C3 ... 1.03

---

ASSAY_REMARKS: chemical genetic growth profiling, strain panel (AID 1159580);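 note: tested at 20 µM; growth read once vehicle control cultures reached saturation at 30 °C; 1 = growth at the plate median or of vehicle wells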
EXPERIMENTAL_CONTEXT: S. cerevisiae deletion strains, growth OD, locus YLL001W, strain dnm1, stronger effect = lower value
Hit rate of the full screen: of about 5,500 compounds, about 2,000 (36%) were called active. Roughly 18% stayed inconclusive and do not appear here. The list shows a part of the results.
MEASURE: normalized growth

1. CC(=O)Oc1c2c(c(CC=C(C)C)c3c1C(=O)C1=C[C@@H]4CC5C(C)(C)OC(C/C=C(\C)C(=O)O)(C4=O)[C@@]15O3)OC(C)(CCC=C(C)C)C=C2 (some centres not stated) ... 0.979 (inactive)
2. CC(C)c1nc(N(C)S(C)(=O)=O)nc(-c2ccc(F)cc2)c1/C=C/[C@@H](O)C[C@@H](O)CC(=O)O ... 1.03 (inactive)
3. CC(=O)O[C@@H]1CC2C(C)(C)C(=O)C3OC3[C@]2(C)C2CC[C@@]3(C)[C@H](c4ccoc4)OC(=O)C4OC43[C@@]21C (some centres not stated) ... 0.991 (inactive)
4. CC1(C)C(=O)[C@@H]2O[C@@H]2[C@@]2(C)C1C[C@@H](O)[C@]1(C)C2CC[C@@]2(C)[C@H](c3ccoc3)OC(=O)C3OC321 (some centres not stated) ... 0.99 (inactive)
5. CC(=O)O[C@@H]1CC2C(C)(C)[C@H](O)C=C[C@]2(C)C2CC[C@@]3(C)[C@H](c4ccoc4)OC(=O)C4OC43[C@@]21C (some centres not stated) ... 1.01 (inactive)
6. CC(=O)O[C@@H]1CC2C(C)(C)[C@H](O)CC[C@]2(C)C2CC[C@@]3(C)[C@H](c4ccoc4)OC(=O)C4OC43[C@@]21C (some centres not stated) ... 1.03 (inactive)
7. CN(C)CCC(c1ccccc1)c1ccccn1 (configuration not stated) ... 1.02 (inactive)
